Target: recombinant soluble 1968 H3 HA (A/Aichi/2/1968) (Influenza A virus A/Aichi/2/1968 (H3N2), UniProt P03437 17-530)
Test: ELISA, supernate
Listed here: items and their measured OD.
quantity.name: OD (OD)

1. mAb 11J19 (antibody, V domains shown) VH: EVQLQESGPGLVKPSETLSLSCTVSGGSITRSSYYWGWIRQPPGKGLEWIGNIYYSGTTYYNPSLKSRVTISVDTSKNQFSLKLSSVTAADTAVYYCARLYGSGLDYWGQGTLVTVS VL: DIQLTQSPSFLSASVGDRVTITCRASQGSSRYVAWYQQKPGKAPKLLILAASTLHTGVPSRFSGSGSGTEFTLTISSLQPEDFATYSCQQLNGFLLTFGGGTKVEIKR	0.895
2. mAb 7A13 (antibody, V domains shown) VH: QVQLQESAPGLVKPSGTLSLTCAVSGASLSSSDWWTWVRQPPGKGLEWIGEIHHGGSTNSNPSLQSRVTISIDKSKKQFSLKLTSVTVADTAVYYCARAPGADAGPYSENIHHWGQGTLVTVS VL: QLVLTQSPSASASLGASVKLTCTLSSRHSDYAIGWHQQQPGKGPRYLMKLNPDGSHTKGDGIPDRFSGSSSGAERYLTISNLLSEDEADYYCQTWGTGIQVFGGGTRLTVIS	0.265
